Test: Effect on fluorescence read out during PTP1B enzymatic reaction compound treated post enzyme-substrate reaction and susequent H2O2-mediated enzyme deactivation
Active and inactive are the calls of the source. The calls are words filed in the database; no cut-off is given here.
Pick from 1.0 = active, 0.0 = inactive when you respond.

Below, 3 compounds whose answers are already recorded.
compound	class.assignment
Cc1c(C)c2c(c(C)c1OC(=O)CCC(=O)O)CC[C@@](C)(CCC[C@H](C)CCC[C@H](C)CCCC(C)C)O2 [(+)-ALPHA-TOCOPHERYL SUCCINATE]	0.0
COc1cc2c(cc1OC)-c1cc3ccc(OC)c(OC)c3c[n+]1CC2 [PALMITINE]	1.0
COc1ccc2cc3[n+](cc2c1OC)CCc1cc2c(cc1-3)OCO2 [BERBERINE]	1.0

Answer briefly: the call reported for O=C(O)C(=O)Nc1sc2c(c1C(=O)O)CCNC2 in this assay.
0.0

* * *

Target: Tyrosine-protein phosphatase non-receptor type 1 (Homo sapiens)
Sequence (P18031 whole entry): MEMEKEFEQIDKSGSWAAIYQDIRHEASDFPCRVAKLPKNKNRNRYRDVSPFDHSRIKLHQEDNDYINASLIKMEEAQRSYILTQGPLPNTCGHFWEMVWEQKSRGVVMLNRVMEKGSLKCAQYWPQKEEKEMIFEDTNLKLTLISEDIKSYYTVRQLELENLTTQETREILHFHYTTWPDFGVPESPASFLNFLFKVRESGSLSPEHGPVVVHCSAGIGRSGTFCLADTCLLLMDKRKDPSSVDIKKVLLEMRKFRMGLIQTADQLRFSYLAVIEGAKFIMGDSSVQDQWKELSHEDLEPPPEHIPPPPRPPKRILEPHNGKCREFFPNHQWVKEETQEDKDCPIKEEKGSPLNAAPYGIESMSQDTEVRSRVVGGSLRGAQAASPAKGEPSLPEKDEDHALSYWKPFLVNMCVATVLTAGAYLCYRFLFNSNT
Assay: Competitive inhibition of PTP1B (1 to 298 residues) (unknown origin) using 60 uM DifMUP as substrate preincubated for 30 mins followed by substrate addition and measured after 30 mins by fluorescence assay
observable: IC50 (µM)
All answers are understood in µM, so give the number only.

Value lookup for IC50; key = Cc1c(C)c2c(c(C)c1OC(=O)CCC(=O)O)CC[C@@](C)(CCC[C@H](C)CCC[C@H](C)CCCC(C)C)O2 [(+)-ALPHA-TOCOPHERYL SUCCINATE]
45.6

* * *

Molecular target: UniProtKB P18031
Test: Inhibition of PTP1B (1 to 298 residues) (unknown origin) using DifMUP as substrate preincubated for 30 mins followed by substrate addition and measured after 30 mins by fluorescence assay
The source made the active and inactive calls. No cut-off for these calls is given here.
Return exactly one item of class 1 = active, class 0 = inactive

smiles	experimental.target	class.assignment
CC(=O)Oc1c(C)c(C)c2c(c1C)CC[C@@](C)(CCC[C@H](C)CCC[C@H](C)CCCC(C)C)O2	UniProtKB P18031	class 0
Cc1c(C)c2c(c(C)c1O)CC[C@@](C)(CCC[C@H](C)CCC[C@H](C)CCCC(C)C)O2	UniProtKB P18031	class 0
CN(C)c1ccc2nc3ccc(=[N+](C)C)cc-3sc2c1	UniProtKB P18031	class 1

Let us examine a further case.
Kindly provide the recorded test outcome for the following compound: Cc1c(C)c2c(c(C)c1OC(=O)CCC(=O)O)CCC(C)(C)O2
class 0

* * *

Molecular target: Tyrosine-protein phosphatase non-receptor type 1 (Homo sapiens, UniProt P18031)
Experiment: Competitive inhibition of PTP1B (1 to 298 residues) (unknown origin) using 15 uM DifMUP as substrate preincubated for 30 mins followed by substrate addition and measured after 30 mins by fluorescence assay
observable: pIC50
Reminder that pIC50 means the negative base-10 logarithm of the concentration expressed in mol/L.

pIC50 of Cc1c(C)c2c(c(C)c1OC(=O)CCC(=O)O)CC[C@@](C)(CCC[C@H](C)CCC[C@H](C)CCCC(C)C)O2 [(+)-ALPHA-TOCOPHERYL SUCCINATE] on Tyrosine-protein phosphatase non-receptor type 1 (Homo sapiens, UniProt P18031)?
4.60
